All values here come from ChEMBL document CHEMBL4229420.

Measured solubility of individual entries
# Protocol summary: Solubility of the compound in pH 7.4 phosphate buffer
# Assay type: physicochemical
# Condition details: buffer

Smiles text: CN1CCN(CCCOc2cccc(CC(=O)Nc3nc(-c4ccncc4)cs3)c2)CC1
solubility: > 200 µM

Now look at this one.
Problem: I have this compound here, O=C(Cc1cccc(OCCCC2CCNCC2)c1)Nc1nc(-c2ccncc2)cs1 , and I need its recorded solubility.
Solution: > 200 µM
